biological target: human Nav1.7 (Homo sapiens, UniProt Q15858); assay: PatchXpress automated patch-clamp, inactivated state block of Nav1.7; conditions: channels stably expressed in HEK 293 cells, 22° C., read-out: potency for the Nav 1.7 sodium ion channel (as measured by PatchXpress)
Sequence (Q15858 whole entry): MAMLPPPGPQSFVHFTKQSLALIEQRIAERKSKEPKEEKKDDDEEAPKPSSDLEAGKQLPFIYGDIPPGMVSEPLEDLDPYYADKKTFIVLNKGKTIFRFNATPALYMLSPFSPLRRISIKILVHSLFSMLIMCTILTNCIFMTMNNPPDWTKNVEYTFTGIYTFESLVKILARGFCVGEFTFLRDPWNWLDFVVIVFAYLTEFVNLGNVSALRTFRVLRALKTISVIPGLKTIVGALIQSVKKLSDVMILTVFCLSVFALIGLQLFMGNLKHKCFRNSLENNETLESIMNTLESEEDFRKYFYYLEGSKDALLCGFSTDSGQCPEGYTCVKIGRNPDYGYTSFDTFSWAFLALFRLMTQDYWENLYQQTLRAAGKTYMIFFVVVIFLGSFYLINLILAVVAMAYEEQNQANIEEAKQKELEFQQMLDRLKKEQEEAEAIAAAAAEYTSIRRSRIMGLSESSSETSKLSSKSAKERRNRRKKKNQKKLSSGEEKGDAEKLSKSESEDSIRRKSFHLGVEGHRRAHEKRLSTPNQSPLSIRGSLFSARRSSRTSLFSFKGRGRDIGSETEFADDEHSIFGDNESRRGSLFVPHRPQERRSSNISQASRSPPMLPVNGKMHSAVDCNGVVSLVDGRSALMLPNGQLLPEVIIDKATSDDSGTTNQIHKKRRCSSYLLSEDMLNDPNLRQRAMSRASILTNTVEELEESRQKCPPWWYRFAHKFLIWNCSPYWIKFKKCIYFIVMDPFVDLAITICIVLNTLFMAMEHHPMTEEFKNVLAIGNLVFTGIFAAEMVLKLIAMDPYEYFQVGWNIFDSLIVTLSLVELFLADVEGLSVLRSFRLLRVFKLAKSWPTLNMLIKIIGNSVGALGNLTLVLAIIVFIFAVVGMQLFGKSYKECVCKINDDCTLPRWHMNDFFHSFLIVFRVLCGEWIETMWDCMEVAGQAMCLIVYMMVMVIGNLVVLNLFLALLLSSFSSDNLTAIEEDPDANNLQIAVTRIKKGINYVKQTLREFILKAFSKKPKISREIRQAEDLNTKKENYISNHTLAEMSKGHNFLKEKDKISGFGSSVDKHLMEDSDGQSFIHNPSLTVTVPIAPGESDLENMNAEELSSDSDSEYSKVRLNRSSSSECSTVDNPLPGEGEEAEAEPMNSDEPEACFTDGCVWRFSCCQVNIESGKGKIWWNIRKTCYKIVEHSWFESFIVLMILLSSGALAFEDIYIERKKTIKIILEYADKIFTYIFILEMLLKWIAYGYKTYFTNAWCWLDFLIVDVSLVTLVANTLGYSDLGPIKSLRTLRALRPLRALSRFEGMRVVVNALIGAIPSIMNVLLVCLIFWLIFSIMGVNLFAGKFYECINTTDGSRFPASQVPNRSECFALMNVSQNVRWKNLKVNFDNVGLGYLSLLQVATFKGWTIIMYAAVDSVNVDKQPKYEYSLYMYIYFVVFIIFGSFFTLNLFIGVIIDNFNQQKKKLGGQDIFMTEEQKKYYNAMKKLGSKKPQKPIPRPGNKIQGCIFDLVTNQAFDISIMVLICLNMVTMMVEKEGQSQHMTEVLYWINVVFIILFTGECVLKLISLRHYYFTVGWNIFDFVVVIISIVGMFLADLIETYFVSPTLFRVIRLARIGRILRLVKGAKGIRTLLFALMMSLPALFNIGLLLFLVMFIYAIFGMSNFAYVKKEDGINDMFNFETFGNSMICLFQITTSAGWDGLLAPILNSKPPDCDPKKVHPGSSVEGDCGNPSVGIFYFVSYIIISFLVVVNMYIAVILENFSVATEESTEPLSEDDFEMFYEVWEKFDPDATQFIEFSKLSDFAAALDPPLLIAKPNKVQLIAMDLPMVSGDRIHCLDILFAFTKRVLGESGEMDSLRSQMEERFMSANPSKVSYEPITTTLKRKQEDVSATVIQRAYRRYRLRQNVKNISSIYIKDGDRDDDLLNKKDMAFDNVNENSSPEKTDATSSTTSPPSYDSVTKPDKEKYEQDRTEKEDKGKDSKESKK
observation_type: IC50 (nM)

(1) O=S(=O)(Nc1ncc(F)s1)c1cc(Cl)c(NCC23CCCN2CC(F)C3)cc1F (single isomer, unassigned) [Ex9-10-A]
(2) COc1ccc(C[C@H]2CN3CCC[C@@]3(CNc3cc(F)c(S(=O)(=O)Nc4nccs4)cc3Cl)C2)cc1 (single isomer, unassigned) [Ex15-10-A]
(3) CCc1cc(S(=O)(=O)Nc2nccs2)c(F)cc1NC[C@]12CCCN1C[C@@H](Cc1ccc(OC)cc1)C2 (single isomer, unassigned) [Ex18-5-B]
Sort ascending by IC50. // respond by listing labels in the order requested
2, 3, 1
(2: 2 nM, 3: 40 nM, 1: 148 nM)

====

biological target: UniProt Q15858; test: PatchXpress automated patch-clamp, inactivated state block of Nav1.7; settings: channels stably expressed in HEK 293 cells, 22° C., read-out: potency for the Nav 1.7 sodium ion channel (as measured by PatchXpress)
pIC50: −log10 of the molar value.
observation_type: pIC50

| compound | pIC50 |
| --- | --- |
| CC(Nc1cc(F)c(S(=O)(=O)Nc2nccs2)cc1Cl)C12CCCN1CCC2 (single isomer, unassigned) [Ex5-8] | 7.28 |

(1) CCc1cc(S(=O)(=O)Nc2nccs2)c(F)cc1NC[C@@]12CCCN1C[C@H](Cc1ccc(OC)cc1)C2 (single isomer, unassigned) [Ex18-5-A]
(2) CCc1cc(S(=O)(=O)Nc2nccs2)c(F)cc1NCC12CCCN1CC(C)(C)C2 (single isomer, unassigned) [Ex18-9-A]
# return whichever of 1 and 2 has the smaller pIC50 Please indicate the selected item by its label.
2

====

molecular target: human Nav1.5 (Homo sapiens); construct: expressed in transfected cells; test: PatchXpress automated patch-clamp, inactivated state block of Nav1.5 (selectivity); assay type: cell-based; details: determined by PatchXpress measurement, HEK 293 cells
Sequence (Q14524 whole entry): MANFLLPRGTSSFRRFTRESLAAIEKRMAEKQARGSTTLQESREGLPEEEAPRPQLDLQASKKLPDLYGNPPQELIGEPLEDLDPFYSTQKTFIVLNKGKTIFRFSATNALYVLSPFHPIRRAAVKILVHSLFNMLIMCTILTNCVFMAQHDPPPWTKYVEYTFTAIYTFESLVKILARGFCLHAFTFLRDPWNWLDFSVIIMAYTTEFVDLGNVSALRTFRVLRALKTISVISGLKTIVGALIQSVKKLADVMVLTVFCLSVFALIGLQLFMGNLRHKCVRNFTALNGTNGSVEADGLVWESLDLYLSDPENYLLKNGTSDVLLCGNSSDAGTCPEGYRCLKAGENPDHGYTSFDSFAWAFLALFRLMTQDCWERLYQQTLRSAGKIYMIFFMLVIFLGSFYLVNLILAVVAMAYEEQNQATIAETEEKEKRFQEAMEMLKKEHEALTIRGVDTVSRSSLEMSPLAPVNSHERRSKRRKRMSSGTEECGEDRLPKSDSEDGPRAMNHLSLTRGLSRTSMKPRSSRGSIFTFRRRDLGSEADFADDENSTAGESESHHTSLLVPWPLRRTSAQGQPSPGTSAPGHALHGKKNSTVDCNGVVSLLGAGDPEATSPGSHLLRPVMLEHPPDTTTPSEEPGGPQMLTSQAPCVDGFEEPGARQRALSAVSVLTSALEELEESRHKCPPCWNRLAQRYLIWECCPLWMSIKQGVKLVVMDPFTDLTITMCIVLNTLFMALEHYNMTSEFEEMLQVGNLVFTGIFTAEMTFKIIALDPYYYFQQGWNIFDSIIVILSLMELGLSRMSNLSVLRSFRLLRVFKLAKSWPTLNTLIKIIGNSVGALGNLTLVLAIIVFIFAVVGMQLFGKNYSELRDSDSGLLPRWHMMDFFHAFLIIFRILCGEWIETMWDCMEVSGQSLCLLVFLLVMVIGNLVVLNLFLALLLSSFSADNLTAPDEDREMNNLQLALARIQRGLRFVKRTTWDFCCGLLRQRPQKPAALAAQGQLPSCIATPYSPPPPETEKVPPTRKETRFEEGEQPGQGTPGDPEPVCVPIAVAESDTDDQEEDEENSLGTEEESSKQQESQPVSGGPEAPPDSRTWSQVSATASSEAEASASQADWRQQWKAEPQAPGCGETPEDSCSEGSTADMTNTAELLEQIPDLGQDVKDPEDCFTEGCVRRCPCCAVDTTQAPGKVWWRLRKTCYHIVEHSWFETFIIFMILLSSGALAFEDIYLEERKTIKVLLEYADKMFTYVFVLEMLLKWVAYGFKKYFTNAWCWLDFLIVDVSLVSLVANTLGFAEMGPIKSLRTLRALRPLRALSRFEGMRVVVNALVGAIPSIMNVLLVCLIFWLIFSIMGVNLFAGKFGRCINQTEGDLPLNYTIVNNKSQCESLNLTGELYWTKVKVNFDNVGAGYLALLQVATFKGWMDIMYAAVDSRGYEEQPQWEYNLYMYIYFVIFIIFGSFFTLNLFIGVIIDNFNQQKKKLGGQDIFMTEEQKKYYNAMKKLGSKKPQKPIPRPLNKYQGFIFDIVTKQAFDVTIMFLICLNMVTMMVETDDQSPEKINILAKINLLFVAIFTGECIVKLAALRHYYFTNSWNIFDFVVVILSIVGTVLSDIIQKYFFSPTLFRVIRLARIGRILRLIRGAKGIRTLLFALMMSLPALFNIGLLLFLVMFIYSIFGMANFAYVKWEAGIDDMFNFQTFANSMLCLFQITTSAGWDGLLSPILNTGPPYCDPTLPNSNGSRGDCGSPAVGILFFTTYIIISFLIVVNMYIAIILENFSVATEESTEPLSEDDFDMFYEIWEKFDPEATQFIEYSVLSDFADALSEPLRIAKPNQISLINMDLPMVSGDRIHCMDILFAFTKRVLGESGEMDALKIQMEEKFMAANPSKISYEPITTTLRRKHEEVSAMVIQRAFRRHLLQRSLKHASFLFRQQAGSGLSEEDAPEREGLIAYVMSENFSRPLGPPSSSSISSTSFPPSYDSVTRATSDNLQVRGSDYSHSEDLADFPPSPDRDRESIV
The entries below come with measured ratio of Nav1.7 potency:Nav 1.5 potency values attached.
Keep the answer to the number alone.

| compound | observation_type | result_number |
| --- | --- | --- |
| O=S(=O)(Nc1nccs1)c1ccc(NCC23CCCN2CCC3)c(Cl)c1 [Ex1-14] | ratio of Nav1.7 potency:Nav 1.5 potency | 337 |
| O=S(=O)(Nc1nccs1)c1cc(Cl)c(NCC23CCCN2CCC3)cc1Br [Ex12-5] | ratio of Nav1.7 potency:Nav 1.5 potency | 288 |
| O=S(=O)(Nc1nccs1)c1ccc(NCC23CCCN2CCC3)c(C(F)(F)F)c1 [Ex1-20] | ratio of Nav1.7 potency:Nav 1.5 potency | 765 |

// ratio of Nav1.7 potency:Nav 1.5 potency lookup, key: O=S(=O)(Nc1ncc(F)s1)c1ccc(NCC23CCCN2CC(F)C3)c(C(F)(F)F)c1 (single isomer, unassigned) [Ex9-12-A]
338

How about CCc1cc(S(=O)(=O)Nc2nccs2)c(F)cc1NC[C@]12CCCN1C[C@@H](Cc1ccc(OC)cc1)C2 (single isomer, unassigned) [Ex18-5-B] ?
359

How about O=S(=O)(Nc1nccs1)c1cc(Cl)c(NCC23CCCCN2CCC3)cc1F (single isomer, unassigned) [Ex17-7-B] ?
193

How about O=S(=O)(Nc1nccs1)c1cc(Cl)c(NC[C@@]23CCCN2[C@H](CO)CC3)cc1F (single isomer, unassigned) [Ex14-11-A] ?
1062

How about O=S(=O)(Nc1cccnn1)c1cc(Cl)c(NCC23CCCN2CCC3)cc1F [Ex3-5] ?
100

This collection of values is drawn from patent US9586968B2.
